# Experiment summary: Body and organ weights of cynomolgus monkeys (Example 46)
# Format: in vivo
# Set-up: unit not given here
# Applied conditions: day 55, after euthanasia
Strand notation (5' to 3'): a small letter for the sugar, then the base; units joined by * are phosphorothioate-linked, units joined directly phosphodiester-linked; [ ] holds rarer units or linkages, { } end groups; capitals alone tell only the bases. e = 2'-O-(2-methoxyethyl) (MOE); [5mC] = 5-methylcytosine; d = 2'-deoxy (DNA)
Entries and their Liver weight values follow.

>  <Substance>
ISIS 449711: 3-8-3, 4-8-4, 2-10-2, 3-10-3 or 4-10-4 MOE microwalk gapmer (Table 46) (antisense eA*e[5mC]*dA*dG*dT*dT*dT*d[5mC]*dT*dG*dG*d[5mC]*eA*eG)

>  <Liver weight>
2.6

$$$$
>  <Substance>
ISIS 416850: MOE gapmer, nucleobases 1275 to 1318 of SEQ ID NO: 1 (Table 8) (antisense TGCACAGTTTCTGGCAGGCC; MOE gapmer, wing and gap sizes not given here)

>  <Liver weight>
2.5

$$$$
>  <Substance>
ISIS 449707: 3-8-3, 4-8-4, 2-10-2, 3-10-3 or 4-10-4 MOE microwalk gapmer (Table 46) (antisense e[5mC]*eA*e[5mC]*eA*dG*dT*dT*dT*d[5mC]*dT*dG*dG*e[5mC]*eA*eG*eG)

>  <Liver weight>
2.5

$$$$
>  <Substance>
ISIS 445531: 5-8-5 or 6-8-6 MOE microwalk gapmer (Table 44) (antisense eG*eG*e[5mC]*eA*eT*dT*dG*dG*dT*dG*d[5mC]*dA*d[5mC]*eA*eG*eT*eT*eT)

>  <Liver weight>
2.8

$$$$
>  <Substance>
ISIS 445522: 5-8-5 or 6-8-6 MOE microwalk gapmer (Table 44) (antisense eG*e[5mC]*eA*e[5mC]*eA*dG*dT*dT*dT*d[5mC]*dT*dG*dG*e[5mC]*eA*eG*eG*e[5mC])

>  <Liver weight>
2.6

$$$$
>  <Substance>
ISIS 449708: 3-8-3, 4-8-4, 2-10-2, 3-10-3 or 4-10-4 MOE microwalk gapmer (Table 46) (antisense eA*e[5mC]*eA*dG*dT*dT*dT*d[5mC]*dT*dG*dG*e[5mC]*eA*eG)

>  <Liver weight>
2.6

$$$$
>  <Substance>
ISIS 449710: 3-8-3, 4-8-4, 2-10-2, 3-10-3 or 4-10-4 MOE microwalk gapmer (Table 46) (antisense e[5mC]*eA*e[5mC]*dA*dG*dT*dT*dT*d[5mC]*dT*dG*dG*d[5mC]*eA*eG*eG)

>  <Liver weight>
2.6

$$$$
>  <Substance>
ISIS 416858: MOE gapmer, nucleobases 1275 to 1318 of SEQ ID NO: 1 (Table 8) (antisense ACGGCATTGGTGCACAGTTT; MOE gapmer, wing and gap sizes not given here)

>  <Liver weight>
2.6

$$$$
>  <Substance>
ISIS 449709: 3-8-3, 4-8-4, 2-10-2, 3-10-3 or 4-10-4 MOE microwalk gapmer (Table 46) (antisense eG*e[5mC]*eA*e[5mC]*dA*dG*dT*dT*dT*d[5mC]*dT*dG*dG*d[5mC]*eA*eG*eG*e[5mC])

>  <Liver weight>
2.6

$$$$

====

# Experiment summary: Tolerability in Sprague-Dawley rats: liver function (Example 35)
# Applied conditions: plasma, 50 mg/kg s.c. twice per week for 6 weeks

>  <Substance>
ISIS 416864: MOE gapmer, nucleobases 1275 to 1318 of SEQ ID NO: 1 (Table 8) (antisense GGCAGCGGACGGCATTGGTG; MOE gapmer, wing and gap sizes not given here)

>  <Albumin>
4

$$$$
>  <Substance>
ISIS 416858: MOE gapmer, nucleobases 1275 to 1318 of SEQ ID NO: 1 (Table 8) (antisense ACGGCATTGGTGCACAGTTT; MOE gapmer, wing and gap sizes not given here)

>  <Albumin>
2

$$$$
>  <Substance>
ISIS 416838: MOE gapmer, nucleobases 1018 to 1042 of SEQ ID NO: 1 (Table 6) (antisense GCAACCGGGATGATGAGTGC; MOE gapmer, wing and gap sizes not given here)

>  <Albumin>
2

$$$$

The origin of these recorded values is patent US20230263822A1.
